Assay: Phase I study CXR1002-001: plasma pharmacokinetics (LC-MS/MS)
Type: in vivo, human
Settings: human, plasma, oral, 750 mg, Patient 027, 750 mg, person, plasma, 24 hr (Day 2); read-out: Concentration
reported.metric: concentration at 24 h
Give your result as the value with the unit written after it.

## Input Determine from records and report concentration at 24 h for "O=C(O)C(F)(F)C(F)(F)C(F)(F)C(F)(F)C(F)(F)C(F)(F)C(F)(F)F"
## Output 199 µM

* * *

Test: Phase I study CXR1002-001: plasma pharmacokinetics (LC-MS/MS)
Type: in vivo, human
Conditions: human, plasma, oral, 50 mg, Patient 004 Dose 50 mg; 672 hr (Day 29); read-out: Concentration
reported.metric: concentration at 672 hr
Report the figure along with its unit, number first.

## Input Return concentration at 672 hr for the following compound: "O=C(O)C(F)(F)C(F)(F)C(F)(F)C(F)(F)C(F)(F)C(F)(F)C(F)(F)F"
## Output 52.3 µM

* * *

Assay: Phase I study CXR1002-001: plasma pharmacokinetics (LC-MS/MS)
Type: in vivo, human
Details: human, plasma, oral, 750 mg, Patient 028, 750 mg, person, plasma, 170 hr; read-out: Concentration
Text: PK samples, PD (fasting) samples, blood glucose, and blood triglyceride samples, were taken over a 6-week period. Dose limiting toxicity (DLT) will be based on the toxicity assessments over the first 3-week period of the repeat dosing schedule. […]
reported.metric: concentration at 170 h

## Input Tell me measured concentration at 170 h for "O=C(O)C(F)(F)C(F)(F)C(F)(F)C(F)(F)C(F)(F)C(F)(F)C(F)(F)F" please.
## Output 321 µM

* * *

Test: Phase I study CXR1002-001: plasma pharmacokinetics (LC-MS/MS)
Format: in vivo, human
Conditions: human, plasma, po, 1000 mg, Patient 041, 1000 mg weekly oral dose, Time 506 hr; read-out: Concentration (plasma level)
reported.metric: concentration at 506 hr (µM)
Answer with a number only, understood to be in µM.

## Input Answer with the recorded concentration at 506 hr of "O=C(O)C(F)(F)C(F)(F)C(F)(F)C(F)(F)C(F)(F)C(F)(F)C(F)(F)F" only.
## Output 674

* * *

Experiment: Phase I study CXR1002-001: plasma pharmacokinetics (LC-MS/MS)
Type: in vivo, human
Details: human, plasma, oral, 50 mg, Patient 003 Dose 50 mg; 1 hr
reported.metric: concentration at 1 h (µM)
Numbers only; they are read as µM.

## Input Answer with reported concentration at 1 h of "O=C(O)C(F)(F)C(F)(F)C(F)(F)C(F)(F)C(F)(F)C(F)(F)C(F)(F)F"
## Output 20.7

* * *

Assay: Phase I study CXR1002-001: plasma pharmacokinetics (LC-MS/MS)
Assay type: in vivo, human
Settings: human, plasma, oral, 1200 mg, Patient 033, 1200 mg, person, plasma, 4 hr; read-out: Concentration
reported.metric: concentration at 4 h (µM)
State just the number; it will be interpreted in µM.

## Input Give me measured concentration at 4 h, please, for this compound: "O=C(O)C(F)(F)C(F)(F)C(F)(F)C(F)(F)C(F)(F)C(F)(F)C(F)(F)F"
## Output 374

* * *

Test: Phase I study CXR1002-001: plasma pharmacokinetics (LC-MS/MS)
Assay type: in vivo, human
Settings: human, plasma, oral, 300 mg, Patient 012 Dose 300 mg; 696 hr (Day 30); read-out: Concentration
reported.metric: concentration at 696 h (µM)
Note: unit µM is implicit; provide only the numeric part.

## Input Name the recorded concentration at 696 h of the compound listed here: "O=C(O)C(F)(F)C(F)(F)C(F)(F)C(F)(F)C(F)(F)C(F)(F)C(F)(F)F"
## Output 334

* * *

Experiment: Phase I study CXR1002-001: plasma pharmacokinetics (LC-MS/MS)
Type: in vivo, human
Details: human, plasma, oral, 1200 mg, Patient 035, 1200 mg, person, plasma, 4 hr; read-out: Concentration
reported.metric: concentration at 4 hr

## Input Give me measured concentration at 4 hr, please, for this compound: "O=C(O)C(F)(F)C(F)(F)C(F)(F)C(F)(F)C(F)(F)C(F)(F)C(F)(F)F"
## Output 317 µM

* * *

Assay: Phase I study CXR1002-001: plasma pharmacokinetics (LC-MS/MS)
Assay type: in vivo, human
Settings: human, plasma, oral, 1200 mg, Patient 034, 1200 mg, person, plasma, 504 hr (Day 22); read-out: Concentration
reported.metric: concentration at 504 hr
Just so you know, I need the unit written after the number.

## Input Give the measured concentration at 504 hr for "O=C(O)C(F)(F)C(F)(F)C(F)(F)C(F)(F)C(F)(F)C(F)(F)C(F)(F)F"
## Output 924 µM

* * *

Assay: Phase I study CXR1002-001: plasma pharmacokinetics (LC-MS/MS)
Assay type: in vivo, human
Conditions: human, plasma, po, 1000 mg, Patient 042, 1000 mg weekly oral dose, Time 171 hr; read-out: Concentration (plasma level)
reported.metric: concentration at 171 hr (µM)
Report as a plain number; the unit µM is understood.

## Input Note down concentration at 171 hr recorded for "O=C(O)C(F)(F)C(F)(F)C(F)(F)C(F)(F)C(F)(F)C(F)(F)C(F)(F)F"
## Output 461

* * *

Assay: Phase I study CXR1002-001: plasma pharmacokinetics (LC-MS/MS)
Assay type: in vivo, human
Conditions: human, plasma, oral, 950 mg, Patient 029, 950 mg, person, plasma, 339 hr; read-out: Concentration
reported.metric: concentration at 339 h
Please don't drop the unit; write it after the number.

## Input # return recorded concentration at 339 h for entry "O=C(O)C(F)(F)C(F)(F)C(F)(F)C(F)(F)C(F)(F)C(F)(F)C(F)(F)F"
## Output 777 µM

* * *

Experiment: Phase I study CXR1002-001: plasma pharmacokinetics (LC-MS/MS)
Type: in vivo, human
Conditions: human, plasma, oral, 1200 mg, Patient 034, 1200 mg, person, plasma, 172 hr; read-out: Concentration
reported.metric: concentration at 172 hr (µM)
Please give a number only; it is taken to be in µM.

## Input Answer with the recorded concentration at 172 hr for the molecule listed here: O=C(O)C(F)(F)C(F)(F)C(F)(F)C(F)(F)C(F)(F)C(F)(F)C(F)(F)F [CXR1002]
## Output 730

* * *

Experiment: Phase I study CXR1002-001: plasma pharmacokinetics (LC-MS/MS)
Assay type: in vivo, human
Details: human, plasma, oral, 100 mg, Patient 006 Dose 100 mg; 507 hr; read-out: Concentration
reported.metric: concentration at 507 hr (µM)
Report as a plain number; the unit µM is understood.

## Input Supply recorded concentration at 507 hr for "O=C(O)C(F)(F)C(F)(F)C(F)(F)C(F)(F)C(F)(F)C(F)(F)C(F)(F)F" here.
## Output 83.8

* * *

Assay: Phase I study CXR1002-001: plasma pharmacokinetics (LC-MS/MS)
Type: in vivo, human
Settings: human, plasma, oral, 50 mg, Patient 004 Dose 50 mg; 506 hr; read-out: Concentration
reported.metric: concentration at 506 h (µM)
Numeric answer only, unit µM assumed.

## Input Indicate its recorded concentration at 506 h; the compound in question is "O=C(O)C(F)(F)C(F)(F)C(F)(F)C(F)(F)C(F)(F)C(F)(F)C(F)(F)F"
## Output 46.3

* * *

Assay: Phase I study CXR1002-001: plasma pharmacokinetics (LC-MS/MS)
Assay type: in vivo, human
Conditions: human, plasma, oral, 750 mg, Patient 028, 750 mg, person, plasma, 675 hr; read-out: Concentration
reported.metric: concentration at 675 h (µM)
Could you give me the number in µM? Just the number is fine.

## Input Determine from records and report concentration at 675 h for "O=C(O)C(F)(F)C(F)(F)C(F)(F)C(F)(F)C(F)(F)C(F)(F)C(F)(F)F"
## Output 713

* * *

System: PANC-1
Assay: ATP depletion cytotoxicity assay 48 hr
Format: cell-based, human
Conditions: Homo sapiens, PANC-1, 48 h, ATP depletion, 48 hrs, read-out: IC50 1-4 (independent replicates)
pIC50: −log10 of the molar value.
reported.metric: pIC50

## Input Report measured pIC50 on PANC-1; entry: "O=C(O)C(F)(F)C(F)(F)C(F)(F)C(F)(F)C(F)(F)C(F)(F)C(F)(F)F"
## Output < 3.00

* * *

Experiment: Phase I study CXR1002-001: plasma pharmacokinetics (LC-MS/MS)
Assay type: in vivo, human
Conditions: human, plasma, oral, 450 mg, Patient 015 Dose 450 mg; 674 hr; read-out: Concentration
reported.metric: concentration at 674 h (µM)
Expressed in µM, but write only the number.

## Input Check the records and state concentration at 674 h for "O=C(O)C(F)(F)C(F)(F)C(F)(F)C(F)(F)C(F)(F)C(F)(F)C(F)(F)F"
## Output 622
